Target: T1, human CD3 on the cell surface (Jurkat cells, expanded human T cells, Jurkat-Lucia NFAT cells, human PBMC) (human, UniProt P07766 23-207; P04234 22-171; P09693 23-182)
T1 construct: whole, on cells; Endogenous CD3 within the TCR-CD3 complex on cells (also zeta chains and TCR); the cell type is named under assay
T1 sequence (P07766 23-207, chain 1 of 3): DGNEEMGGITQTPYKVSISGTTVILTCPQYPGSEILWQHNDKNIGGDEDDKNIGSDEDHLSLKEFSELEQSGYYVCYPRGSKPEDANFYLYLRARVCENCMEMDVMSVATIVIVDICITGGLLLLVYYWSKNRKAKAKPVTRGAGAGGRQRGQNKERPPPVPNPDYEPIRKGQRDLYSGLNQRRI
T1 sequence (P04234 22-171, chain 2 of 3): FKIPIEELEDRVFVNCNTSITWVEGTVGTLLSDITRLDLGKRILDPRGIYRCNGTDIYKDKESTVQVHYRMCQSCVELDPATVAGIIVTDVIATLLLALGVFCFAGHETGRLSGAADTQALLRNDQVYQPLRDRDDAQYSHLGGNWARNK
T1 sequence (P09693 23-182, chain 3 of 3): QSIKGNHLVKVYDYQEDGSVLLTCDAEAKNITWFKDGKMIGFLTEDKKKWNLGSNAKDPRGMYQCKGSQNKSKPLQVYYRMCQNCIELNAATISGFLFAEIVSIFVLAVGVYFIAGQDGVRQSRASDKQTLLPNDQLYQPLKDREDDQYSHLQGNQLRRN
Assay: FACS, expanded human T cells
log10 of EC50 values for the binders below.
measure-name: log10 of EC50 (log10 of the value in pM)

binder	log10 of EC50
5-40.21 human-murine chimeric antibody (antibody, human IgG1, kappa, V domains shown, Human IgG1 chimera) VH: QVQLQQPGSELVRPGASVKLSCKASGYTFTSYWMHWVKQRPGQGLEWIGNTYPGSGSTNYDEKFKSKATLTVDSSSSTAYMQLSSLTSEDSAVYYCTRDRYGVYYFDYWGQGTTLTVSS VL: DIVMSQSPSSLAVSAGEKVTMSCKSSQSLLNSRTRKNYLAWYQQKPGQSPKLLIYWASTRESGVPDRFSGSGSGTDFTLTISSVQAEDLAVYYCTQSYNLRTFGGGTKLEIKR	3.00
6-44.5 human-murine chimeric antibody (antibody, human IgG1, kappa, V domains shown, Human IgG1 chimera) VH: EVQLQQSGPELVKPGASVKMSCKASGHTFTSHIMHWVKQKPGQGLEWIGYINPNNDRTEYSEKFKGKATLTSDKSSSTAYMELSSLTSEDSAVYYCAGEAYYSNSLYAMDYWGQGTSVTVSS VL: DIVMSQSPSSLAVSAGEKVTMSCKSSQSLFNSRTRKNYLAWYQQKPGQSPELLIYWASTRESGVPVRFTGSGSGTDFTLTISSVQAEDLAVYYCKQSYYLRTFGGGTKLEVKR	2.79
40G5c-hIgG1 (antibody, V domains shown) VH: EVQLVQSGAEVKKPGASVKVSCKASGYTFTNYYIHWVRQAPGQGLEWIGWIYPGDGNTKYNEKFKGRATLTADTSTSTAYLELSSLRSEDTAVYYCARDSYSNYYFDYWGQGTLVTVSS VL: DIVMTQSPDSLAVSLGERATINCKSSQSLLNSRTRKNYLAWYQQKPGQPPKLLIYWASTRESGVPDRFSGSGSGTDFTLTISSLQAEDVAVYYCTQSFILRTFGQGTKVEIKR	2.85
5-7.13 human-murine chimeric antibody (antibody, human IgG1, kappa, V domains shown, Human IgG1 chimera) VH: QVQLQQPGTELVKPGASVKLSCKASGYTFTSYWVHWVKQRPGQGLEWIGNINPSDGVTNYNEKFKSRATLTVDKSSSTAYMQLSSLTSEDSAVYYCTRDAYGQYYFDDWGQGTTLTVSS VL: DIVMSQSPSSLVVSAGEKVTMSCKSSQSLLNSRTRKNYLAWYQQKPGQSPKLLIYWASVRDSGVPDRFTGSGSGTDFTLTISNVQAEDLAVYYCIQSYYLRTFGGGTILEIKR	2.00
6-35.22 human-murine chimeric antibody (antibody, human IgG1, kappa, V domains shown, Human IgG1 chimera) VH: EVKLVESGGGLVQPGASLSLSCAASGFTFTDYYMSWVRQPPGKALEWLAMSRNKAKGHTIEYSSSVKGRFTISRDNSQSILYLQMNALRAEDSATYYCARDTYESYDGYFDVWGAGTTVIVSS VL: DIVMSQSPSSLAVSAGETVTMSCKSSQSLFNSRSRKNYLAWYQQKPGQTPKLLIYWASIRESGVPDRFTGSGSGTDFTLTISSVQAEDLAVYYCKQSYYLYTFGSGTKLEIKR	3.56
